experimentalTarget: human GLP-1 receptor (human, UniProt P43220 24-463)
protocol: cell-based or functional assay
Rule: EC50, cAMP below 0.3 nM gives criterion met. Equal to or above 0.3 nM gives criterion not met.

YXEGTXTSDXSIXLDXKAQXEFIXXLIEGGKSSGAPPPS (Aib2, αMeF(2F)6, ChA10, αMeL13, Orn16, Aib20, D-Glu24, αMeY25, K17 and K31: K(AEEA2-(γ-Glu)-CO-(CH2)12-CO2H), C-terminal NH2) [Example 98]	criterion met

Ask | Does the reported EC50, cAMP of the following binder sit strictly below 0.3 nM? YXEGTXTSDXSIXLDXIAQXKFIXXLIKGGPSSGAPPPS (Aib2, αMeF(2F)6, 4Pal10, αMeL13, Orn16, Aib20, D-Glu24, αMeY25, K21 and K28: K(AEEA2-(γ-Glu)-CO-(CH2)12-CO2H), C-terminal NH2) [Example 73]
Reply | criterion not met

Ask | Please check: EC50, cAMP for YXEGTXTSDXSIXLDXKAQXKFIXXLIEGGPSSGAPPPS (Aib2, αMeF(2F)6, 4Pal10, αMeL13, Orn16, Aib20, D-Glu24, αMeY25, K17 and K21: K(AEEA2-(γ-Glu)-(10-(4-carboxyphenoxy)decanoyl)), C-terminal NH2) [Example 127] , strictly under 0.3 nM or not?
Reply | criterion not met

Ask | # check: EC50, cAMP < 0.3 nM for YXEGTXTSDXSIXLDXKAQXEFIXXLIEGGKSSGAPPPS (Aib2, αMeF(2F)6, Nle10, αMeL13, Orn16, Aib20, D-Glu24, αMeY25, K17 and K31: K(AEEA2-(γ-Glu)-CO-(CH2)12-CO2H), C-terminal NH2) [Example 60]
Reply | criterion met

Ask | Is EC50, cAMP strictly under 0.3 nM for the entry YXEGTXTSDVSIXLDXKAQXEXIKXLIEGGPSSGAPPPS (Aib2, αMeF(2F)6, αMeL13, Orn16, Aib20, αMeF22, αMeF25, K17 and K24: K(AEEA2-(γ-Glu)-CO-(CH2)12-CO2H), C-terminal NH2) [Example 122] ?
Reply | criterion not met

Ask | is_below(EC50, cAMP, 0.3 nM) for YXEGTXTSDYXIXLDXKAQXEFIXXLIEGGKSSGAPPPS (Aib2, αMeF(2F)6, Aib11, αMeL13, Orn16, Aib20, D-Glu24, αMeY25, K17 and K31: K(AEEA2-(γ-Glu)-CO-(CH2)12-CO2H), C-terminal NH2) [Example 50] ?
Reply | criterion met
